Recorded values, source patent US20150087812A1.

- assay_system: recombinant human ATX beta isoform with N-terminal purification tag (human, UniProt Q13822 49-863)
- experiment: Fab-His ELISA
endpoint_label: fold above background

| binder | endpoint_label | measured |
| --- | --- | --- |
| Fab F85 (VH H58, VL L79) (Fab, V domains shown, Soluble Fab-His) VH: QVQLVQSGAEVKKPGSSVKVSCKASGGTFSSYAISWVRQAPGQGLEWMGGIIPIFGTANYAQKFQGRVTITADESTSTAYMELSSLRSEDTAVYYCARDLYGIDIYYALDYWGQGTLVTVSS VL: EIVLTQSPGTLSLSPGERATLSCRASQSVSSSYLAWYQQKPGQAPRLLIYGASSRATGIPDRFSGSGSGTDFTLTISRLEPEDFAVYYCQQSNTLPLTFGQGTKVEIK | fold above background | ≥ 6 fold |
